System: MS2 coat protein
TEST_PROTOCOL: apparent KD of MS2 coat protein; designed switch direction (-1 OFF switch, 1 ON switch): 1; higher = weaker reporter binding
MEASUREMENT_CONTEXT: input ligand: FMN 200 uM
# maps each entry to its apparent KD of MS2 coat protein
The response must be a number in nM with no trailing unit.

Consider the following illustrative entries.
[[record]]
ordered_residues = "GGUCCAUCAUGAGGAUAUGGCACCUUAUUGGUGCCAGAAGGCAUGUCUAUGACAUGAGGAUCACCCAUGUAAAUAAAUUGGACC [Eli NG1ss - 94] (Eterna round: R96, puzzle: Same State NG 1)"
study_system = "MS2 coat protein"
readout_value = 32.3

[[record]]
ordered_residues = "AACCCAAUGGAAGGAUAUGGCACCUUAUUGGUGCCAGAAGGUCCUAACAUGAGGAUCACCCAUGUGGGCCGGUCGAAAGACCGG [Fiskers NG1ss - 6] (Eterna round: R96, puzzle: Same State NG 1)"
study_system = "MS2 coat protein"
readout_value = 106


Okay, now this sequence:
Prompt: Tell me reported apparent KD of MS2 coat protein for UGUUGUAUUACAGGAUAUCUAUUGUUUUGAUUUAGAGAAGGGUAUUCACAUGAGGAUCACCCAUGUAUAUACGAGGAAGUUGUG [JMF's solution 77] (Eterna round: R96, puzzle: Same State NG 1) , tested with MS2 coat protein.
Response: 64.1

---

System: MS2 coat protein
TEST_PROTOCOL: apparent KD of MS2 coat protein; higher = weaker reporter binding
MEASUREMENT_CONTEXT: Eterna round: R107; input ligand: tryptophan 2.4 mM
Give 1 when the value for apparent KD of MS2 coat protein is at least 0.1 µM. Give 0 when it is less.

[[record]]
ordered_residues = "UGGCGAGAAGGAAGGAGCGUCAGCUGAGUCACAUGAGGAUCACCCAUGUAGGACAUGGUGUGACAGGUAGGUCGCCUUCUGCCCU [SS-ArgB18]"
label_class = 0


Prompt: Entry GGUGGCGGGACUGAUACCAGCCACCACCGAUAGACCACAUGAGGAUCACCCAUGUUGGGUGGCCCUUGGCAGCAGUCUUGCGGCU [#1 Same State - Theophylline B Attempt #14 (HarryS)] : is its apparent KD of MS2 coat protein no less than 0.1 µM?
Response: 1

Prompt: For this sequence, is measured apparent KD of MS2 coat protein 0.1 µM or higher? ACAUCCAGGUUAAUCGUGGGCAUGGUCGAUACCAGUAUUUUAAUCUACCCUUGGCAGCGACAUGAGGAUCACCCAUGUGCGAUGA [XTheo A #13]
Response: 0

Prompt: Does the sequence AACUGGACCAGUGAUACCAGAGACAUGAGGAUCACCCAUGUACAUGAGGAUCACCCAUGUCUCCCUUGGCAGCACAGCAGGGAGC [Exclusion Theophylline B Gf12] have recorded apparent KD of MS2 coat protein that is 0.1 µM or more?
Response: 1

Prompt: Decide: is the reported value of apparent KD of MS2 coat protein for ACAUGAGGAUCACCCAUGUAAUAAGGAGAAGGAGCGCGUAAGGACGCAGGUAGGUCGCUCGUGGUCCGGCCGCAAGGCCGGACCA [#1 Same State - Arginine A Attempt #8 (HarryS)] equal to or greater than 0.1 µM?
Response: 0
